Recorded values, source patent US6232318A.

# Lookup of reported Ki keyed by entry
Target: human alpha 1a adrenergic receptor (Homo sapiens, UniProt P35348)
Sequence (P35348 whole entry): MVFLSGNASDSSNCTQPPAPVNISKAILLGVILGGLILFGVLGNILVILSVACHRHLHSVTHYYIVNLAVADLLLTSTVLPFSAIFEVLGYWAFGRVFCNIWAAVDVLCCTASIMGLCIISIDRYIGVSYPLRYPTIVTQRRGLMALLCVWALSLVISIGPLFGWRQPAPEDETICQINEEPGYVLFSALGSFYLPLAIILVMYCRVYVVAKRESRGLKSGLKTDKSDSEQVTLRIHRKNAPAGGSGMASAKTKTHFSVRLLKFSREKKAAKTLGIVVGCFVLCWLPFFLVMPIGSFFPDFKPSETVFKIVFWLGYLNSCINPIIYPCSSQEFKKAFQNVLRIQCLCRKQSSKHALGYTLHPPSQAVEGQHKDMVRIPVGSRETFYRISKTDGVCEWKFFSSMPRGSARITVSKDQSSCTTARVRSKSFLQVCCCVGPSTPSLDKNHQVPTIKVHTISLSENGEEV
Experiment: Screening assay: alpha 1a adrenergic receptor binding ([125I]-HEAT competition, membranes of stably transfected cell line)
Conditions: room temperature, 1 h, pH 7.4

compound: Cc1cn(CCCN[C@H]2CC[C@](C#N)(c3ccccc3C#N)CC2)c(=O)n(Cc2ccccc2)c1=O [Example 26]
quantity-unit: nM
Ki: 790
--
compound: Cc1cn(Cc2ccccc2)c(=O)n(CCCN[C@H]2CC[C@@](C#N)(c3ccccc3)CC2)c1=O [Example 6]
quantity-unit: nM
Ki: 500
--
compound: Cc1c[nH]c(=O)n(CCCN[C@H]2CC[C@@](C#N)(c3ccccc3)CC2)c1=O [Example 21]
quantity-unit: nM
Ki: 755

====

Target: human alpha 1a adrenergic receptor (Homo sapiens)
Assay: Screening assay: alpha 1a adrenergic receptor binding ([125I]-HEAT competition, membranes of stably transfected cell line)
Conditions: value in mM

molecule: Cc1cn(Cc2ccccc2)c(=O)n(CCCN[C@H]2CC[C@@](C#N)(c3cc(F)cc(F)c3)CC2)c1=O [Example 9]
quantity-unit: mM
Ki: 0.000115
